test_method_notes: Selectivity index, ratio of CC50 for cytotoxicity against African green monkey Vero cells to EC50 for antiviral activity against Respiratory syncytial virus
Format: toxicity, cell-based
experimental_parameters: read-out: Ratio CC50/EC50
measurement_name: selectivity ratio

[
  {
    "molecule": "CCN(CC)CCNC(=O)CC(CC(=O)N(CC)C1Cc2ccccc2C1)c1ccc(Cl)cc1 (configuration not stated)",
    "result_value": 1.01
  }
]

Req: Using known records, supply selectivity ratio for CCN(C(=O)CC(CC(=O)NCCN1CCCCC1)c1ccc(Cl)cc1)C1Cc2ccccc2C1 (configuration not stated)
Resp: 6.84

* * *

As an illustration, consider measured pIC50 for compounds on Adenosylhomocysteinase (Homo sapiens).
Sequence (P23526 whole entry): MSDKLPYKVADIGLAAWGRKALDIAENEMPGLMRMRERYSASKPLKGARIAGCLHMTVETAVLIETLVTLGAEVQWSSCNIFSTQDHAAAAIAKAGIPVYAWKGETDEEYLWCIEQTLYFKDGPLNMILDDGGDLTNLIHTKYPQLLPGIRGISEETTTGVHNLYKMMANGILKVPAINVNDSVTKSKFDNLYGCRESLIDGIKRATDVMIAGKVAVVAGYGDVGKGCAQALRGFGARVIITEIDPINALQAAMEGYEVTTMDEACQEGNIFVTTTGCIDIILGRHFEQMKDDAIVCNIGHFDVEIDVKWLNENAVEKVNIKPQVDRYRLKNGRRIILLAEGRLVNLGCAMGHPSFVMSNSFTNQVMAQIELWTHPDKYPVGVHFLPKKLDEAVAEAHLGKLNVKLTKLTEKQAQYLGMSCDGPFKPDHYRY
Remember the convention: pIC50 equals -log10 of concentration in molar.

Req: Using known records, supply pIC50 for CCN(CC)CCNC(=O)CC(CC(=O)NC1Cc2ccccc2C1)c1ccc(Cl)cc1 (centres undefined)
Resp: 5.43

Req: Using known records, supply pIC50 for CCN(C(=O)CC(CC(=O)NCCN1CCCCC1)c1ccc(Cl)cc1)C1Cc2ccccc2C1 (centres undefined)
Resp: 5.45

Req: Using known records, supply pIC50 for CCNCCNC(=O)CC(CC(=O)N(CC)C1Cc2ccccc2C1)c1ccc(Cl)cc1 (centres undefined)
Resp: 5.42

Req: Using known records, supply pIC50 for CCN(CC)CCNC(=O)CC(CC(=O)N(CC)C1Cc2ccccc2C1)c1ccc(Cl)cc1 (centres undefined)
Resp: 5.43
